Molecular target: T1, human GIPR (human), P48546
T1 chain: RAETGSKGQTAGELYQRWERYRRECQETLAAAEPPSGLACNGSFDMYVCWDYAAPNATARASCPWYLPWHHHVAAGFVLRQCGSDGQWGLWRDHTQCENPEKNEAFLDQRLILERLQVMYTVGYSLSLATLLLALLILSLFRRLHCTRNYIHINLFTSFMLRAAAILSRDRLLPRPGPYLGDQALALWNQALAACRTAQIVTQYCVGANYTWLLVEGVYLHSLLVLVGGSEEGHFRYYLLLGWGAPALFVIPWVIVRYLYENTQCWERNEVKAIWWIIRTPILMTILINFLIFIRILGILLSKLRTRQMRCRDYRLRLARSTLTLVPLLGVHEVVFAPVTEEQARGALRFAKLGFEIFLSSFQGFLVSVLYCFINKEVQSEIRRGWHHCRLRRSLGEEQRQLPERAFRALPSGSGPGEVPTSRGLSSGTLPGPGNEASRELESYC
Starred links: 1 amine or outer side, 2 acyl side, 3 side chain; linkers in the order of their positions; H or OH if unused. Non-standard residues stand in square brackets, D forms with d. Groups on a side chain read outwards from the residue. Primed or numbered codes have the meaning given here. No end group written: not given here. *: point of attachment. C20 diacid = O=C(O)CCCCCCCCCCCCCCCCCCC(=O)*; γGlu = O=C(O)[C@H](CCC(=O)[*:2])N[*:1]; Stearoyl = CCCCCCCCCCCCCCCCCC(=O)*; PEG2′ = not defined here; PEG3′ = not defined here; Aib = CC(C)(N)C(=O)O
Reported Agonist activity (EC50, M) by item:

Y[Aib]EGTFISDYSK([PEG3′-PEG3′-γGlu-C20 diacid])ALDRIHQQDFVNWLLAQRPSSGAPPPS (not fully specified (C-terminus); ends and bridges not checked) [Compound 238] ... 8.3e-11 M

Continue with the next binder.
Query block: So what's the measured Agonist activity (EC50, M) for this one? Y[Aib]EGTFISDYSK([PEG2′-Stearoyl])ALDRIHQQDFVNWLLAQRPSSGAPPPSR (ends and bridges not checked) [Compound 181]
Result block: 9.2e-12 M

Values compiled from patent US20180298070A1.
